# test_method_notes: in vivo
# Parameters: species or system mice
# assay_conditions: male, NOD.Cg-Rag1tm1Mom Il2rgtm1Wjl/SzJ (NRG), mouse, iv, total radioactivity, Ratio Tumor-to-Bone
Where a SMILES comes first, the peptide text is derived from it. Bridges are numbered along the chain shown (N, C = ends). [ ]: non-standard residue; d: D form. The star is where a group is joined. X3 = O=C(O)CN1CCN(CC(=O)O)CCN(CC(=O)N[C@@H](CS(=O)(=O)O)C(=O)N[C@@H](CCCCNC(=O)CCCc2ccc(Br)cc2)C(=O)*)CCN(CC(=O)O)CC1; 2Nal = N[C@@H](Cc1ccc2ccccc2c1)C(=O)O; Lys(iPr) = CC(C)NCCCC[C@H](N)C(=O)O
observable: tissue to tissue ratio at 3 h
The answer should be written as a number, with no unit following it.

Query :: For CC(C)NCCCC[C@H](NC(=O)[C@H]1CCC(=O)N[C@@H](CCCCNC(=O)[C@H](CCCCNC(=O)CCCc2ccc(Br)cc2)NC(=O)[C@H](CS(=O)(=O)O)NC(=O)CN2CCN(CC(=O)O)CCN(CC(=O)O)CCN(CC(=O)O)CC2)C(=O)N[C@@H](Cc2ccc(O)cc2)C(=O)N[C@@H](CCCCNC(C)C)C(=O)N[C@H](CCCNC(=N)N)C(=O)N[C@@H](Cc2ccc3ccccc3c2)C(=O)N[C@H](C)C(=O)N1)C(N)=O [[^177Lu]Lu-BL34L20, metal not drawn] (K(X3)Y[Lys(iPr)][dR][2Nal][dA][dE][Lys(iPr)]-NH2; lactam N-7) , what is its reported tissue to tissue ratio at 3 h?
Result :: 10.5
